# Test system: SK-MEL-2
# assayName: NCI tumour cell line growth inhibition, 48 h
Activity calls are given as the source filed them. Cut-off read from the data, not from the text of the source: active = GI50 up to about 1.1 µM and inactive = higher.
measuredMetric: GI50

Notebook: pull reported GI50 for SK-MEL-2, entry `Nc1nc(O)c2c(n1)NCN(c1ccc(S(N)(=O)=O)cc1)C2`
> 100 µM (inactive)

Notebook: pull reported GI50 for SK-MEL-2, entry `CCOC(=O)C1=C(Nc2ccc(Cl)c(Cl)c2)OC/C1=N\NC(=O)Cc1ccccc1`
> 100 µM (inactive)

Notebook: pull reported GI50 for SK-MEL-2, entry `C/C(CN1C(=O)c2ccccc2C1=O)=N\NS(=O)(=O)c1ccc(Br)cc1`
> 100 µM (inactive)

Notebook: pull reported GI50 for SK-MEL-2, entry `COc1ccc(Cn2c3c(cc(OS(=O)(=O)C(F)(F)F)c2=O)Cc2ccccc2-3)cc1`
45.6 µM (inactive)

Notebook: pull reported GI50 for SK-MEL-2, entry `O=C(c1ccc(Cl)cc1)c1ccc(OCCCOc2ccc(C(=O)c3ccc(Cl)cc3)cc2Cl)c(Cl)c1`
> 100 µM (inactive)

Notebook: pull reported GI50 for SK-MEL-2, entry `Cc1ccc(C(=O)N/N=C(\N=N\c2cccc(C)c2)c2ccc(N(CCC#N)CCC#N)cc2C)cc1`
49.3 µM (inactive)

Notebook: pull reported GI50 for SK-MEL-2, entry `O=C(/C=C/c1ccccc1)C[C@@H](O)C[C@@H]1CC=CC(=O)O1`
14.2 µM (inactive)

Notebook: pull reported GI50 for SK-MEL-2, entry `CCCCCC(O)(CCCCC)CCCCCCCCC1=C(O)C(=O)c2ccccc2C1=O`
12.1 µM (inactive)

---

GI50 listing for selected compounds.
# Test system: KM12
# assayName: NCI tumour cell line growth inhibition, 48 h
Calls of active or inactive are those of the source. Rule as the data show it: active = GI50 up to about 1.1 µM and inactive = higher.

Consider the following illustrative entries.
O=C(O)c1[nH]c2c([N+](=O)[O-])cc([N+](=O)[O-])cc2c1C(=O)O :: > 100 µM (inactive)
CC(=O)Nc1ccc(/C=C/c2ccc(NC(=O)Nc3ccc(/C=C/c4ccc(NC(C)=O)cc4S(=O)(=O)O)c(S(=O)(=O)O)c3)cc2S(=O)(=O)O)c(S(=O)(=O)O)c1 :: > 100 µM (inactive)
CCC1(c2c(F)c(F)c(N)c(F)c2F)CCC(=O)NC1=O (stereo unspecified) :: > 100 µM (inactive)
CNS(=O)(=O)NN(C)S(=O)(=O)c1ccc(Cl)cc1 :: > 100 µM (inactive)
COc1c2c(cc3c1OCO3)[C@]13C=C[C@H](OC)C[C@H]1N(C2)CC3O (stereo partly specified) :: > 100 µM (inactive)
O=C1c2ccccc2-c2nc(/C=C/c3ccccc3)cc3c2c1nc1ccccc13 :: 18.5 µM (inactive)
CC(C)=CC(Cc1ccccc1)S(=O)(=O)c1nc2ccccc2s1 (stereo unspecified) :: 18.7 µM (inactive)
CCCCCCCCCCCCC(=O)CCCCC(=O)O :: 15.8 µM (inactive)
CCOC(=O)CN1C(=O)c2c(NC(=O)C(=O)O)cccc2S1(=O)=O :: > 100 µM (inactive)
COc1cc(O)c2c(=O)c(O)c(-c3ccc(O)c(OC)c3)oc2c1 :: 3.47 µM (inactive)

Notebook: pull reported GI50 for KM12, entry CCOC(=O)C(=CNc1ccc(NC2=NCC(C)S2)cc1)C(=O)OCC (stereo unspecified)
16.6 µM (inactive)

Notebook: pull reported GI50 for KM12, entry CCCCON1C[C@H](OC(C)=O)C(OC(C)=O)[C@H](OC(C)=O)C1 (stereo partly specified)
> 100 µM (inactive)

Notebook: pull reported GI50 for KM12, entry `NS(=O)(=O)c1ccc(Nc2c3ccccc3nc3c(C(=O)N4CCN(CCO)CC4)cccc23)cc1`
93.5 µM (inactive)

Notebook: pull reported GI50 for KM12, entry `O=[N+]([O-])c1cccc(Cl)c1Oc1ccc(S(=O)(=O)N/C(=N\O)Nc2ccc(Cl)cc2)cc1`
15.9 µM (inactive)

Notebook: pull reported GI50 for KM12, entry `N#CC(C#N)=Cn1c(=S)[nH]c2ccccc21`
> 100 µM (inactive)

Notebook: pull reported GI50 for KM12, entry `CNS(=O)(=O)NN(C)S(=O)(=O)c1ccc(C)cc1`
> 100 µM (inactive)

---

# System: HOP-62
# assayName: NCI tumour cell line growth inhibition, 48 h
Activity calls are given as the source filed them. Cut-off read from the data, not from the text of the source: active = GI50 up to about 1.1 µM and inactive = higher.
measuredMetric: GI50

CN(C)CCNc1c([N+](=O)[O-])sc2ccc(Cl)cc12 :: 12.2 µM (inactive)
O=C1c2ccccc2C(=O)c2c(NCC(O)CO)ccc(NCC(O)CO)c21 (centres undefined) :: 61.1 µM (inactive)
C#CCOCn1cnc2c(N)ncnc21 :: > 100 µM (inactive)

Please turn your attention to the following entry.
Find the recorded GI50 belonging to `COc1ccc(Cn2c3c(cc(OS(=O)(=O)C(F)(F)F)c2=O)Cc2ccccc2-3)cc1` and report it.
21.9 µM (inactive)

---

# Tested on: SK-MEL-5
# assayName: NCI tumour cell line growth inhibition, 48 h
Calls of active or inactive are those of the source. No stated cut-off is given here; in the data, active = GI50 up to about 1.1 µM and inactive = higher.
Reply using exactly one outcome from yes = active, no = inactive

Worked examples follow.
CCCCCCCCCCCC(=O)N(CCCCCCCCC)CC(O)C(O)C(OC1OC(CO)C(O)C(O)C1O)C(O)CO (stereo unspecified) :: no
CCNC(=O)C1CCCN1C(=O)C(CCCN=C(N)N)NC(=O)C(CC(C)C)NC(=O)C(Cc1c[nH]c2ccccc12)NC(=O)C(Cc1ccc(O)cc1)NC(=O)C(CO)NC(=O)C(Cc1c[nH]c2ccccc12)NC(=O)C(Cc1c[nH]cn1)NC(=O)C1CCC(=O)N1 (stereo unspecified) :: no
Cc1coc2c1C(=O)C(=O)c1ccccc1-2 :: yes
O=C1/C(=C/c2ccc(F)cc2)CNC/C1=C\c1ccc(F)cc1 :: no
COc1cc(NCC2COc3c(ccc(OC)c3OC)C2=O)c([N+](=O)[O-])cc1OC (stereo unspecified) :: no

Can you look up the reported call for `Cn1c(-c2ccccc2)cc(-c2cccs2)c1-c1ccsc1` for me?
no

Can you look up the reported call for `N/C(=N/c1ccc(O)cc1)S(=O)O` for me?
no

Can you look up the reported call for `CCOC(=O)C1=NN(c2ccccc2)C2=CC(C)=NN(C)C(=S)N21` for me?
no

---

# Test system: NCI-H226
# assayName: NCI tumour cell line growth inhibition, 48 h
The source made the active and inactive calls. Cut-off read from the data, not from the text of the source: active = GI50 up to about 1.1 µM and inactive = higher.
GI50 listing for selected molecules.

Consider the following illustrative entries.
Cc1ccc(C2=C(c3ccccc3)C(Br)(c3ccccc3)C(c3ccccc3)=C2c2ccc(C)cc2)cc1 :: > 100 µM (inactive)
COc1ccc(C2C3CCc4ccccc4C3=NN2S(=O)(=O)c2ccc(Cl)cc2)cc1 (stereo unspecified) :: 20.7 µM (inactive)
O=C1C=C(Br)C(=O)C12CCc1ccccc12 (stereo unspecified) :: 18.3 µM (inactive)
CC(C)=CC(Cc1ccccc1)S(=O)(=O)c1nc2ccccc2s1 (stereo unspecified) :: 13.3 µM (inactive)
CSc1c([S+](C)[O-])c2ccccc2n1C (stereo unspecified) :: > 100 µM (inactive)

Find the recorded GI50 belonging to `Cc1ccc(S(=O)(=O)N2CCCSCCN(S(=O)(=O)c3ccc(C)cc3)CCCSCC2)cc1` and report it.
> 100 µM (inactive)

Find the recorded GI50 belonging to `CCOC(=O)c1ccc(NC(=O)O/N=C(/Cl)C(C)C)cc1` and report it.
24.4 µM (inactive)

Find the recorded GI50 belonging to `Cc1ccc2c(=O)cc(Cc3cccs3)[nH]c2n1` and report it.
> 100 µM (inactive)

Find the recorded GI50 belonging to CC1=CC2C(=O)N(c3ccccc3)C(=O)C2CC1n1[nH]c(=O)n(Cc2ccccc2)c1=O (stereo unspecified) and report it.
> 100 µM (inactive)

---

# System: NCI-H522
# assayName: NCI tumour cell line growth inhibition, 48 h
Calls of active or inactive are those of the source. Cut-off read from the data, not from the text of the source: active = GI50 up to about 1.1 µM and inactive = higher.
measuredMetric: GI50

CC1=C(C(=O)NNC(=O)C[N+](C)(C)C)CC(C(=O)NNC(=O)C[N+](C)(C)C)=C(C)N1 :: > 100 µM (inactive)
CCOC(=O)c1cnc(N(C)C)nc1SC(=N)N :: > 100 µM (inactive)

Find the recorded GI50 belonging to `CC(C)(C)/N=C1/CC(C)(C)c2ccccc2/C(=N\c2ccccc2)S1` and report it.
15.2 µM (inactive)

Find the recorded GI50 belonging to `Cc1nc2c(=O)[nH]c(=O)n(C)c2[nH]c1=O.c1ccncc1` and report it.
> 100 µM (inactive)

Find the recorded GI50 belonging to O=NN1CCNC1Cc1ccccc1 (configuration not stated) and report it.
85.5 µM (inactive)

Find the recorded GI50 belonging to COc1ccc2oc(S(=O)(=O)N3CC(CCl)c4ccc(N)cc43)cc2c1 (configuration not stated) and report it.
0.0184 µM (active)

Find the recorded GI50 belonging to `C=C(CCC/C(C)=C/C=C/[C@H](C)CCCc1ccoc1)C[C@@H]1OC(=O)[C@H](C)[C@@H]1O` and report it.
9.02 µM (inactive)

Origin of values: ChEMBL document CHEMBL1201862
